molecular target: UniProt Q8N884; assay: Cellular assay to measure cGAS activity (IFNb AlphaLISA in THP1 cells stimulated by RDG-Adenovirus-GFP); assay type: cell-based; design: host or cells: THP1 cells differentiated with PMA and stimulated with RDG-Adenovirus-GFP; settings: PMA-differentiated THP1 cells, RDG-Adenovirus-GFP at 1000 MOI; inhibition of IFNb production as marker for cGAS activity
The compounds listed here are annotated with their pIC50.
Quick note: pIC50 means taking -log10 of the concentration in moles per liter.

Please review the entries below; each comes with its answer.
[
  {
    "Compound": "Cn1ncc(-c2cc(Cl)c(Cl)c3[nH]c4c(c23)CC(=O)NCC4CC(C)(C)O)n1 (stereo not shown)",
    "Assay value": 6.14
  },
  {
    "Compound": "CC1C(=O)NCCc2[nH]c3c(Cl)c(Cl)cc(OCCO)c3c21 (stereo not shown)",
    "Assay value": 5.68
  },
  {
    "Compound": "CC1C(=O)NCCc2[nH]c3c(Cl)c(Cl)cc(OCCF)c3c21 (stereo not shown)",
    "Assay value": 5.94
  },
  {
    "Compound": "CC(C)(O)C[C@@H]1CNC(=O)Cc2c1[nH]c1c(Cl)c(Cl)cc(CC#N)c21 (single isomer, unassigned) [Example 106]",
    "Assay value": 6.06
  },
  {
    "Compound": "Cn1ncc(-c2cc(Cl)c(Cl)c3[nH]c4c(c23)CC(=O)NCC4)n1",
    "Assay value": 6.09
  }
]

// pIC50 value for CC(C)(O)C[C@@H]1CNC(=O)Cc2c1[nH]c1c(Cl)c(Cl)cc(OCC#N)c21 (single isomer, unassigned) [Example 108] : 6.17

Lab book: pIC50 of C[C@@H]1CNC(=O)[C@H](C)c2c1[nH]c1c(Cl)c(Cl)cc(NCCO)c21 (single isomer, unassigned) [Example 155] noted as 6.18

Record summary for CCC1CNC(=O)Cc2c1[nH]c1c(Cl)c(Cl)cc(-c3cnn(C)n3)c21 (stereo not shown) : reported pIC50 = 5.89

// field: pIC50; key: CC1C(=O)NCCc2[nH]c3c(Cl)c(Cl)cc(NCCO)c3c21 (racemic) [Example 49] ; value = 6.41

Value of measured pIC50 for the entry Cn1ncc(-c2cc(Cl)c(Cl)c3[nH]c4c(c23)CC(=O)NCC4CCC(F)F)n1 (racemic) : 6.08

Sure, the documented pIC50 for `O=C1Cc2c([nH]c3c(Cl)c(Cl)cc(NC(=O)CO)c23)CCN1` is 5.16

pIC50 recorded for this compound, Cn1c2c(c3c(OCC#N)cc(Cl)c(Cl)c31)CC(=O)NC[C@H]2CCO (single isomer, unassigned) [Example 126] , is 6.30

The compound N#CCc1cc(Cl)c(Cl)c2c1c1c3n2CCC3CNC(=O)C1 (stereo not shown) showed pIC50 equal to 5.90

====

Molecular target: cGAS (Homo sapiens, UniProt Q8N884)
Sequence (Q8N884 whole entry): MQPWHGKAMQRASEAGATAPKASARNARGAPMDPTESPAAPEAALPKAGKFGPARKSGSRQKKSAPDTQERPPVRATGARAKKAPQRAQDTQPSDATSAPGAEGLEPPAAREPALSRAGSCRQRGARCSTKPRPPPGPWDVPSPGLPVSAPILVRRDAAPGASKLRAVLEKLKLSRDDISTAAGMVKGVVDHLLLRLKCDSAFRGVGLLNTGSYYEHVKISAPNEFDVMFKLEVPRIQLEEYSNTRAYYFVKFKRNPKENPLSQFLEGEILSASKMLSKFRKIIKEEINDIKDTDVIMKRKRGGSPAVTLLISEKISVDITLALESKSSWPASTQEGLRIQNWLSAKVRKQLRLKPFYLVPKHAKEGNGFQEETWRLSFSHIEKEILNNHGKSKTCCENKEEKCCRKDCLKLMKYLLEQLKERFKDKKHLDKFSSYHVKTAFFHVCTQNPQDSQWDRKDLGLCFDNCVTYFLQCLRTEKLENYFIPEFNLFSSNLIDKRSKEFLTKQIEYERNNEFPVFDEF
Experiment: Cellular assay to measure cGAS activity (IFNb AlphaLISA in THP1 cells stimulated by RDG-Adenovirus-GFP)
Assay type: cell-based
Set-up: host or cells: THP1 cells differentiated with PMA and stimulated with RDG-Adenovirus-GFP
Settings: PMA-differentiated THP1 cells, RDG-Adenovirus-GFP at 1000 MOI; inhibition of IFNb production as marker for cGAS activity
Protocol: Cellular assay to measure cGAS activity: Use THP1 cell line from ATCC to determine inhibition of cGAS activity by test compounds in human cells. Plate cells on 96-well plates at 0.2×10^6/well and differentiate with phorbol myristate acetate (PMA) at 37° C./5% CO2. […] Measure quantification of IFNb with an IFNb AlphaLISA Detection kit (Perkin Elmer AL3133F) by mixing the acceptor beads with the cell supernatant followed by the addition of the biotinylated antibody and donor beads. […]
1 if IC50 is below 3000 nM. -1 if not; exact matches included in -1.

Find out if reported IC50 for O=C1Cc2c([nH]c3c(Cl)c(Cl)cc(-c4cn[nH]c4)c23)CCN1 [Example 19] is less than 3000 nM
-1

Decide: IC50 of COc1cc(Cl)c(Cl)c2[nH]c3c(c12)C(C)C(=O)NCC3 (centres unmarked) [Example 10] strictly below 3000 nM?
1

Input C[C@@H]1CNC(=O)[C@@H](C)c2c1[nH]c1c(Cl)c(Cl)cc(CC#N)c21 (single isomer, unassigned) [Example 150] ; condition: IC50 strictly below 3000 nM. Does it hold?
1

Lab note: confirm whether the reported IC50 for this compound is below 3000 nM, equality not counting. compound: CC1C(=O)NCCc2[nH]c3c(Cl)c(Cl)cc(NCC(F)F)c3c21 (centres unmarked) [Example 70]
1

Lab note: confirm whether the reported IC50 for this compound is below 3000 nM, equality not counting. compound: C[C@@H]1CNC(=O)Cc2c1[nH]c1c(Cl)c(Cl)cc(-c3cnn(C)n3)c21 (single isomer, unassigned) [Example 147]
-1

====

Item-by-item account of IC50
molecular target: UniProt Q8N884; experiment: In vitro inhibition assay of cGAS activity (cGAMP production, RapidFire mass spectrometry); format: biochemical; set-up: Insert cDNA encoding full-length of human cGAS; His6; made in house; host or cells: E. coli BL21(DE3); conditions: 10 nM recombinant human cGAS, 60 nM 75-bp dsDNA, 50 μM ATP, 50 μM GTP, 3 hrs
Numeric answer plus unit only.

[
  {
    "Compound": "CC1C(=O)NCCc2c1c1c(NCCO)cc(Cl)c(Cl)c1n2C(F)F (racemic)",
    "IC50": "16.4 nM"
  },
  {
    "Compound": "C[C@@H]1C(=O)NCCc2[nH]c3c(Cl)c(Cl)cc(OC[C@@H](C)O)c3c21 (single isomer, unassigned) [Example 82]",
    "IC50": "32.5 nM"
  },
  {
    "Compound": "C[C@H]1C(=O)NCCc2[nH]c3c(Cl)c(Cl)cc(-c4cnn(C)n4)c3c21 (single isomer, unassigned) [Example 37]",
    "IC50": "30.4 nM"
  },
  {
    "Compound": "C[C@@H]1C(=O)NCCc2[nH]c3c(Cl)c(Cl)cc(OCC#N)c3c21 (single isomer, unassigned) [Example 16A]",
    "IC50": "2.18 nM"
  },
  {
    "Compound": "C[C@H]1C(=O)NCCc2[nH]c3c(Cl)c(Cl)cc(NCCCO)c3c21 (single isomer, unassigned) [Example 54]",
    "IC50": "4250 nM"
  }
]

The value of IC50 recorded for C[C@@H](O)CNc1cc(Cl)c(Cl)c2c1c1c(n2C)CCNC(=O)[C@@H]1C (single isomer, unassigned) [Example 98] when tested on UniProt Q8N884 reads 42.4 nM

The compound Cn1c2c(c3c(CC#N)cc(Cl)c(Cl)c31)CC(=O)NC[C@H]2CCO (single isomer, unassigned) [Example 122] , when measured on UniProt Q8N884, yielded IC50 of 934 nM

====

target: cGAS (Homo sapiens); experiment: In vitro inhibition assay of cGAS activity (cGAMP production, RapidFire mass spectrometry); assay type: biochemical; design: Insert cDNA encoding full-length of human cGAS; His6; made in house; host or cells: E. coli BL21(DE3); conditions: 10 nM recombinant human cGAS, 60 nM 75-bp dsDNA, 50 μM ATP, 50 μM GTP, 3 hrs
Outcome measure: IC50 (nM)
Reply numerically in nM, unit not repeated.

Solved cases (5 shown):
[
  {
    "Compound": "Cn1c2c(c3c(OCC#N)cc(Cl)c(Cl)c31)CC(=O)NC[C@H]2CC(C)(C)O (single isomer, unassigned) [Example 110]",
    "Unit descriptor": "nM",
    "IC50": 2610
  },
  {
    "Compound": "Cn1ncc(-c2cc(Cl)c(Cl)c3[nH]c4c(c23)CC(=O)NC[C@H]4CC(C)(C)O)n1 (single isomer, unassigned) [Example 104]",
    "Unit descriptor": "nM",
    "IC50": 42.2
  },
  {
    "Compound": "CC(C)(O)C[C@@H]1CNC(=O)Cc2c1[nH]c1c(Cl)c(Cl)cc(OCC#N)c21 (single isomer, unassigned) [Example 108]",
    "Unit descriptor": "nM",
    "IC50": 25.7
  },
  {
    "Compound": "C[C@@H]1CNC(=O)[C@@H](C)c2c1[nH]c1c(Cl)c(Cl)cc(CC#N)c21 (single isomer, unassigned) [Example 153]",
    "Unit descriptor": "nM",
    "IC50": 2420
  },
  {
    "Compound": "C[C@@H]1C(=O)NCCc2[nH]c3c(Cl)c(Cl)cc(OC[C@@H](C)O)c3c21 (single isomer, unassigned) [Example 83]",
    "Unit descriptor": "nM",
    "IC50": 4740
  }
]

Query compound follows.
Just so you know, measured IC50 for CC(O)CC1CNC(=O)Cc2c1[nH]c1c(Cl)c(Cl)cc(-c3cnn(C)n3)c21 (stereo not drawn) came out at 23.2
